Could you please report measured % Increase in life-span (T/C, %) for the items listed next?
# Test system: Leukemia L-1210 cells
# Procedure summary: Antitumor activity against leukemia L-1210 in CDF1 mice, 60-day observation (Test Example 1)
# Assay type: in vivo, mouse
# Condition notes: 2.5 mg/kg/day i.p., 9 days; 60 d observation; '>' = at least one of four mice survived 60 days
Give bare numbers, in %.

# count of solved cases: 3
| Sample smiles | % Increase in life-span (T/C, %) |
| --- | --- |
| COc1cccc2c1C(=O)c1c(O)c3c(c(O)c1C2=O)C[C@@](O)(C(C)=O)C[C@@H]3O[C@H]1C[C@H](N)[C@H](O)[C@H](C)O1 | 171 |
| COc1cccc2c1C(=O)c1c(O)c3c(c(O)c1C2=O)C[C@@](O)(C(C)=O)C[C@@H]3O[C@@H]1O[C@@H](C(F)(F)F)[C@@H](O)[C@@H](O)[C@H]1F | 210 |
| COc1cccc2c1C(=O)c1c(O)c3c(c(O)c1C2=O)C[C@@](O)(C(=O)CO)C[C@@H]3O[C@@H]1O[C@@H](C(F)(F)F)[C@@H](O)[C@@H](O)[C@H]1F | 233 |

Hi! Can you tell me % Increase in life-span (T/C, %) for each of these compounds?
1. COc1cccc2c1C(=O)c1c(O)c3c(c(O)c1C2=O)C[C@@](O)(C(C)=O)C[C@@H]3O[C@@H]1O[C@@H](C)[C@@H](O)[C@@H](O)[C@H]1F
2. COc1cccc2c1C(=O)c1c(O)c3c(c(O)c1C2=O)C[C@@](O)(C(=O)CO)C[C@@H]3O[C@H]1C[C@H](N)[C@H](O)[C@H](C)O1

[217, 273]

----------
# Tested on: Leukemia L-1210 cells
# Procedure summary: Antitumor activity against leukemia L-1210 in CDF1 mice, 60-day observation (Test Example 1)
# Assay type: in vivo, mouse
# Condition notes: 0.6 mg/kg/day i.p., 9 days; 60 d observation; '>' = at least one of four mice survived 60 days
Measured parameter: % Increase in life-span (T/C, %)
Answers are plain numbers, in %.

# count of solved cases: 4
| Compound | Assayed target | % Increase in life-span (T/C, %) |
| --- | --- | --- |
| COc1cccc2c1C(=O)c1c(O)c3c(c(O)c1C2=O)C[C@@](O)(C(=O)CO)C[C@@H]3O[C@@H]1O[C@@H](C)[C@@H](O)[C@@H](O)[C@H]1F [FT-ADM] | Leukemia L-1210 cells | 185 |
| COc1cccc2c1C(=O)c1c(O)c3c(c(O)c1C2=O)C[C@@](O)(C(C)=O)C[C@@H]3O[C@H]1C[C@H](N)[C@H](O)[C@H](C)O1 [Daunomycin, daunomycin] | Leukemia L-1210 cells | 145 |
| COc1cccc2c1C(=O)c1c(O)c3c(c(O)c1C2=O)C[C@@](O)(C(C)=O)C[C@@H]3O[C@@H]1O[C@@H](C(F)(F)F)[C@@H](O)[C@@H](O)[C@H]1F [Compound (a)] | Leukemia L-1210 cells | 132 |
| COc1cccc2c1C(=O)c1c(O)c3c(c(O)c1C2=O)C[C@@](O)(C(C)=O)C[C@@H]3O[C@@H]1O[C@@H](C)[C@@H](O)[C@@H](O)[C@H]1F [FT-DM] | Leukemia L-1210 cells | 125 |

// next entry
So what does the record say about % Increase in life-span (T/C, %) for COc1cccc2c1C(=O)c1c(O)c3c(c(O)c1C2=O)C[C@@](O)(C(=O)CO)C[C@@H]3O[C@H]1C[C@H](N)[C@H](O)[C@H](C)O1 [Adriamycin, adriamycin] ?
208
